- Tested on: A498
- protocolDetails: Antitumor activity against human A498 cells assessed as growth inhibition at 10 uM relative to control
- Type: functional
- conditionNotes: read-out: GI
measurementName: inhibition of growth at 10 µM (%)
Output spec: scalar in %, unitless text.

Q: Using the record for "N#Cc1c(-c2ccc(Cl)cc2)nc(N/N=C/c2cccc(Cl)c2)nc1N1CCOCC1" , report its inhibition of growth at 10 µM.
A: 57.8

Q: Using the record for "N#Cc1c(-c2ccc(Cl)cc2)nc(N/N=C/c2cccc(O)c2)nc1N1CCOCC1" , report its inhibition of growth at 10 µM.
A: 24.9

Q: Using the record for "CC1=NN(c2nc(-c3ccc(Cl)cc3)c(C#N)c(N3CCOCC3)n2)C(=O)C1" , report its inhibition of growth at 10 µM.
A: 42

Q: Using the record for "N#Cc1c(-c2ccc(Cl)cc2)nc(N/N=C2/C(=O)Nc3ccc(Br)cc32)nc1N1CCOCC1" , report its inhibition of growth at 10 µM.
A: 26.3

----------
- Test system: M14
- protocolDetails: Antitumor activity against human M14 cells assessed as growth inhibition at 10 uM relative to control
- Type: functional
- conditionNotes: read-out: GI
measurementName: inhibition of growth at 10 µM (%)
Output spec: scalar in %, unitless text.

Q: Using the record for "N#Cc1c(-c2ccc(Cl)cc2)nc(N/N=C/c2cccc(Cl)c2)nc1N1CCOCC1" , report its inhibition of growth at 10 µM.
A: 15.4

Q: Using the record for "N#Cc1c(-c2ccc(Cl)cc2)nc(N/N=C/c2cccc(O)c2)nc1N1CCOCC1" , report its inhibition of growth at 10 µM.
A: 33.4

Q: Using the record for "N#Cc1c(-c2ccc(Cl)cc2)nc(N/N=C/c2ccco2)nc1N1CCOCC1" , report its inhibition of growth at 10 µM.
A: 28.6

Q: Using the record for "N#Cc1c(-c2ccc(Cl)cc2)nc(N/N=C/c2cccc([N+](=O)[O-])c2)nc1N1CCOCC1" , report its inhibition of growth at 10 µM.
A: 16.4

Q: Using the record for "CC1=NN(c2nc(-c3ccc(Cl)cc3)c(C#N)c(N3CCOCC3)n2)C(=O)C1" , report its inhibition of growth at 10 µM.
A: 10

----------
Can you tell me inhibition of growth at 10 µM for the items I'm about to list?
- Tested on: HL-60
- protocolDetails: Antitumor activity against human HL-60 cells assessed as growth inhibition at 10 uM relative to control
- Assay type: functional
- conditionNotes: read-out: GI

Q: Using the record for "N#Cc1c(-c2ccc(Cl)cc2)nc(N/N=C2/C(=O)Nc3ccc(Br)cc32)nc1N1CCOCC1" , report its inhibition of growth at 10 µM.
A: < 1%

Q: Using the record for "CC1=NN(c2nc(-c3ccc(Cl)cc3)c(C#N)c(N3CCOCC3)n2)C(=O)C1" , report its inhibition of growth at 10 µM.
A: 18.2%

Q: Using the record for "N#Cc1c(-c2ccc(Cl)cc2)nc(N/N=C/c2cccc([N+](=O)[O-])c2)nc1N1CCOCC1" , report its inhibition of growth at 10 µM.
A: 13.5%

Q: Using the record for "N#Cc1c(-c2ccc(Cl)cc2)nc(NN2C(=O)CCC2=O)nc1N1CCOCC1" , report its inhibition of growth at 10 µM.
A: < 1%

Q: Using the record for "N#Cc1c(-c2ccc(Cl)cc2)nc(N2NC(=O)CC2=N)nc1N1CCOCC1" , report its inhibition of growth at 10 µM.
A: < 1%

Q: Using the record for "N#Cc1c(-c2ccc(Cl)cc2)nc(N/N=C/c2ccc[nH]2)nc1N1CCOCC1" , report its inhibition of growth at 10 µM.
A: 97.7%

Q: Using the record for "N#Cc1c(-c2ccc(Cl)cc2)nc(N/N=C/c2cccc(Cl)c2)nc1N1CCOCC1" , report its inhibition of growth at 10 µM.
A: 28.5%

Q: Using the record for "CSc1nc(Cl)c(C#N)c(-c2ccc(Cl)cc2)n1" , report its inhibition of growth at 10 µM.
A: < 1%

Q: Using the record for "CSc1nc(O)c(C#N)c(-c2ccc(Cl)cc2)n1" , report its inhibition of growth at 10 µM.
A: < 1%

Q: Using the record for "N#Cc1c(-c2ccc(Cl)cc2)nc(N/N=C/c2cccc(F)c2)nc1N1CCOCC1" , report its inhibition of growth at 10 µM.
A: < 1%

Q: Using the record for "N#Cc1c(-c2ccc(Cl)cc2)nc(N/N=C2/C(=O)Nc3ccccc32)nc1N1CCOCC1" , report its inhibition of growth at 10 µM.
A: < 1%
